experiment: Pharmacokinetics of ginsenosides after single oral RGE after amoxicillin with or without repeated LAB treatment; conditions: male, ICR, mouse, plasma, po, 2 g/kg, Tmax, Amoxicillin + LAB; single oral RGE 2 g/kg
property.name: Tmax (h)
One number for each entry, in h.

Entry CC(C)=CCC[C@](C)(O[C@@H]1O[C@H](CO[C@@H]2O[C@H](CO)[C@@H](O)[C@H](O)[C@H]2O)[C@@H](O)[C@H](O)[C@H]1O)[C@H]1CC[C@]2(C)[C@@H]1[C@H](O)C[C@@H]1[C@@]3(C)CC[C@H](O[C@@H]4O[C@H](CO)[C@@H](O)[C@H](O)[C@H]4O[C@@H]4O[C@H](CO)[C@@H](O)[C@H](O)[C@H]4O)C(C)(C)[C@@H]3CC[C@]12C [GRb1, 20(S)-ginsenosides Rb1] needs its Tmax filled in; supply it. 4.7

====

Test: Pharmacokinetics of ginsenosides after single oral RGE with or without amoxicillin treatment
Type: in vivo, mice
Conditions: male, ICR, mouse, plasma, po, 2 g/kg, Control; single oral RGE 2 g/kg; plasma; read-out: Half-Life (converted)
Description: Male ICR mice (7-weeks-year-old, 30–35 g) were purchased from Samtako Co. (Osan, Kyunggi-do, Korea). Animals were acclimatized for 1 week in an animal facility at Kyungpook National University. Food and water were available ad libitum. Before blood sampling, mice were anesthetized using isoflurane (isoflurane vaporizer to 2% with oxygen flow at 0.8 L/min) for 5 min.
property.name: Half-Life (h)
Numbers only, in h.

Look up and report measured Half-Life for this entry: CC(C)=CCC[C@](C)(O[C@@H]1O[C@H](CO[C@@H]2O[C@H](CO)[C@@H](O)[C@H](O)[C@H]2O)[C@@H](O)[C@H](O)[C@H]1O)[C@H]1CC[C@]2(C)[C@@H]1[C@H](O)C[C@@H]1[C@@]3(C)CC[C@H](O[C@@H]4O[C@H](CO)[C@@H](O)[C@H](O)[C@H]4O[C@@H]4O[C@H](CO)[C@@H](O)[C@H](O)[C@H]4O)C(C)(C)[C@@H]3CC[C@]12C [GRb1, 20(S)-ginsenosides Rb1] 25.9

====

test: Pharmacokinetics of ginsenosides after single oral RGE with or without amoxicillin treatment; type: in vivo, mice; settings: male, ICR, mouse, plasma, po, 2 g/kg, Amoxicillin 3 days pretreatment; single oral RGE 2 g/kg; AUC 0 to 48 h; read-out: AUC
property.name: AUC (ng·h/mL)
Answers are plain numbers, in ng·h/mL.

Supply recorded AUC for CC(C)=CCC[C@](C)(O[C@@H]1O[C@H](CO[C@@H]2O[C@H](CO)[C@@H](O)[C@H](O)[C@H]2O)[C@@H](O)[C@H](O)[C@H]1O)[C@H]1CC[C@]2(C)[C@@H]1[C@H](O)C[C@@H]1[C@@]3(C)CC[C@H](O[C@@H]4O[C@H](CO)[C@@H](O)[C@H](O)[C@H]4O[C@@H]4O[C@H](CO)[C@@H](O)[C@H](O)[C@H]4O)C(C)(C)[C@@H]3CC[C@]12C [GRb1, 20(S)-ginsenosides Rb1] here. 926

====

assay: Recovery of ginsenosides from urine and feces for 48 h after RGE, amoxicillin vs control; conditions: urine 48 h after single oral RGE 2 g/kg
property.name: Ginsenosides identified in urine

CC(C)=CCC[C@](C)(O[C@@H]1O[C@H](CO[C@@H]2O[C@@H](CO)[C@H](O)[C@H]2O)[C@@H](O)[C@H](O)[C@H]1O)[C@H]1CC[C@]2(C)[C@@H]1[C@H](O)C[C@@H]1[C@@]3(C)CC[C@H](O[C@@H]4O[C@H](CO)[C@@H](O)[C@H](O)[C@H]4O[C@@H]4O[C@H](CO)[C@@H](O)[C@H](O)[C@H]4O)C(C)(C)[C@@H]3CC[C@]12C ... identified in urine
CC(C)=CCC[C@](C)(O[C@@H]1O[C@H](CO)[C@@H](O)[C@H](O)[C@H]1O)[C@H]1CC[C@]2(C)[C@@H]1[C@H](O)C[C@@H]1[C@@]3(C)CC[C@H](O[C@@H]4O[C@H](CO)[C@@H](O)[C@H](O)[C@H]4O[C@@H]4O[C@H](CO)[C@@H](O)[C@H](O)[C@H]4O)C(C)(C)[C@@H]3CC[C@]12C ... identified in urine

====

test: Plasma protein binding by rapid equilibrium dialysis; format: in vitro ADME; conditions: pooled mouse plasma, 4 h at 37 °C
property.name: fraction unbound at 4 h, 1 μM
One number for each entry.

Output fraction unbound at 4 h, 1 μM of CC(C)NCC(O)COc1cccc2ccccc12 (stereo not shown) 0.103

====

assay: Pharmacokinetics of ginsenosides after single oral RGE with or without amoxicillin treatment; type: in vivo, mice; settings: Control; single oral RGE 2 g/kg; plasma
property.name: Half-Life (h)
Numbers only, in h.

Completed entries (count: 3):
CC(C)=CCC[C@](C)(O[C@@H]1O[C@H](CO)[C@@H](O)[C@H](O)[C@H]1O)[C@H]1CC[C@]2(C)[C@@H]1[C@H](O)C[C@@H]1[C@@]3(C)CC[C@H](O[C@@H]4O[C@H](CO)[C@@H](O)[C@H](O)[C@H]4O[C@@H]4O[C@H](CO)[C@@H](O)[C@H](O)[C@H]4O)C(C)(C)[C@@H]3CC[C@]12C [GRd] ... 24.2
CC(C)=CCC[C@](C)(O[C@@H]1O[C@H](CO[C@@H]2O[C@@H](CO)[C@H](O)[C@H]2O)[C@@H](O)[C@H](O)[C@H]1O)[C@H]1CC[C@]2(C)[C@@H]1[C@H](O)C[C@@H]1[C@@]3(C)CC[C@H](O[C@@H]4O[C@H](CO)[C@@H](O)[C@H](O)[C@H]4O[C@@H]4O[C@H](CO)[C@@H](O)[C@H](O)[C@H]4O)C(C)(C)[C@@H]3CC[C@]12C [GRc] ... 22.8
CC(C)=CCC[C@](C)(O[C@@H]1O[C@H](CO[C@@H]2OC[C@H](O)[C@H](O)[C@H]2O)[C@@H](O)[C@H](O)[C@H]1O)[C@H]1CC[C@]2(C)[C@@H]1[C@H](O)C[C@@H]1[C@@]3(C)CC[C@H](O[C@@H]4O[C@H](CO)[C@@H](O)[C@H](O)[C@H]4O[C@@H]4O[C@H](CO)[C@@H](O)[C@H](O)[C@H]4O)C(C)(C)[C@@H]3CC[C@]12C [GRb2] ... 24.6

Now, please, on to the next molecule.
Recall and state the measured Half-Life for CC(C)=CCC[C@](C)(O[C@@H]1O[C@H](CO)[C@@H](O)[C@H](O)[C@H]1O)[C@H]1CC[C@]2(C)[C@@H]1[C@H](O)C[C@@H]1[C@@]3(C)CC[C@H](O)C(C)(C)[C@@H]3CC[C@]12C [CK, 20(S)-compound K] . 13.2

====

experiment: Pharmacokinetics of ginsenosides after single oral RGE after amoxicillin with or without repeated LAB treatment; details: Amoxicillin + LAB; single oral RGE 2 g/kg
Record form. Attribute: Cmax. Fill in for each entry.
One number for each entry, in ng/mL.

CC(C)=CCC[C@](C)(O[C@@H]1O[C@H](CO[C@@H]2OC[C@H](O)[C@H](O)[C@H]2O)[C@@H](O)[C@H](O)[C@H]1O)[C@H]1CC[C@]2(C)[C@@H]1[C@H](O)C[C@@H]1[C@@]3(C)CC[C@H](O[C@@H]4O[C@H](CO)[C@@H](O)[C@H](O)[C@H]4O[C@@H]4O[C@H](CO)[C@@H](O)[C@H](O)[C@H]4O)C(C)(C)[C@@H]3CC[C@]12C ... 15.1

// for each molecule below, give its Cmax
1. CC(C)=CCC[C@](C)(O[C@@H]1O[C@H](CO)[C@@H](O)[C@H](O)[C@H]1O)[C@H]1CC[C@]2(C)[C@@H]1[C@H](O)C[C@@H]1[C@@]3(C)CC[C@H](O)C(C)(C)[C@@H]3CC[C@]12C [CK, 20(S)-compound K]
2. CC(C)=CCC[C@](C)(O[C@@H]1O[C@H](CO[C@@H]2O[C@@H](CO)[C@H](O)[C@H]2O)[C@@H](O)[C@H](O)[C@H]1O)[C@H]1CC[C@]2(C)[C@@H]1[C@H](O)C[C@@H]1[C@@]3(C)CC[C@H](O[C@@H]4O[C@H](CO)[C@@H](O)[C@H](O)[C@H]4O[C@@H]4O[C@H](CO)[C@@H](O)[C@H](O)[C@H]4O)C(C)(C)[C@@H]3CC[C@]12C
3. CC(C)=CCC[C@](C)(O)[C@H]1CC[C@]2(C)[C@@H]1[C@H](O)C[C@@H]1[C@@]3(C)CC[C@H](O[C@@H]4O[C@H](CO)[C@@H](O)[C@H](O)[C@H]4O[C@@H]4O[C@H](CO)[C@@H](O)[C@H](O)[C@H]4O)C(C)(C)[C@@H]3CC[C@]12C

1. 9.3
2. 18.3
3. 4.8

Using known records, supply Cmax for `CC(C)=CCC[C@](C)(O[C@@H]1O[C@H](CO)[C@@H](O)[C@H](O)[C@H]1O)[C@H]1CC[C@]2(C)[C@@H]1[C@H](O)C[C@@H]1[C@@]3(C)CC[C@H](O[C@@H]4O[C@H](CO)[C@@H](O)[C@H](O)[C@H]4O[C@@H]4O[C@H](CO)[C@@H](O)[C@H](O)[C@H]4O)C(C)(C)[C@@H]3CC[C@]12C` 18.4

From: paper PMC8469489
